Catalogue of IC50 values
- ASSAY METHOD TEXT: microbe, parasite or virus in culture
- CONDITION DESCRIPTION: Mycobacterium tuberculosis, 96 h, read-out: pIC50 (converted)
READOUT LABEL: IC50 (µM)

>>> print(df.to_string())
                                    molecule  relational_operator  experimental_value
 0           CCN1CCN(Cc2nc(-c3ccccc3)no2)CC1                    >                 501
 1                    NCc1cccc(OCc2ccccn2)c1                    >                 501
 2  Cc1nn(C2CCCC2)c2nc(C(C)(C)CN3CCN(C)CC3)[nH]c12                    >                50.1
 3   O=c1c2sccc2nc2n1CCN(Cc1ccc(F)c(F)c1)CC2                    =                4.05
 4  CCOCC(=O)NC(C)Cc1ccccc1Br (stereo unspecified)                    =               0.742
 5  CC(=O)NCC(=O)N1C[C@@H]2CC[C@H](Oc3ccccc3Cl)[C@@H]2C1                    >                50.1
 6  CCOc1ccc(Cl)cc1CNCCNCC(C)O (stereo unspecified)                    =                30.7
 7           O=C(Nc1ccccn1)c1csc(NC2CCCC2)n1                    =                26.1
 8          Cc1cccc(N2CCC3(CCCC(=O)N3)CC2)n1                    >                50.1
 9              CC(C)NS(=O)(=O)c1cc(CN)ccc1F                    >                 501
10    CC(C)c1cc(C(=O)NCCCN(C)C)nc(N2CCCC2)n1                    =                31.2
11                O=C(CNC1CC1)NCCc1ccc(F)cc1                    =                63.6
12            CN(C(=O)CN)c1ccc(-c2ccccc2)cc1                    =                 260
13                    O=C(CNCC1CC1)Nc1ccccc1                    >                 501
14  Cc1noc(C)c1-c1cccc(C2CN(CC(=O)N(C)C)CCO2)n1 (stereo unspecified)                    >                50.1
15  CC(C)CN1C(=O)C(N)c2ccccc21 (stereo unspecified)                    >                 501
16     CCc1nc(C)c(C(=O)NCC2CCS(=O)(=O)CC2)o1                    >                 501
17           COc1ccc(-c2cc(NCCO)nc(N)n2)cc1C                    >                 501
18  Cn1nc(C2CCCN(Cc3cc(F)ccc3F)C2)c2nccnc21 (stereo unspecified)                    >                50.1
19  CC(=O)c1ccc(NCC(=O)NC(C)C(C)C)cc1 (stereo unspecified)                    =                 182
20  Cc1cccc(-c2ccc(C(=O)NCCN3CCOCC3)c(=O)[nH]2)c1                    >                50.1
21  Cc1cc(C)c(CN2CCOC(CN)C2)cc1C (stereo unspecified)                    =                 259
22          COC(=O)CCCC(=O)N1CCCc2ccc(F)cc21                    =                 277
23            COc1cccc(CN(C)C(=O)c2occc2C)n1                    =                 279
24  COc1ccccc1C(C)NC(=O)Cn1cc(C)cn1 (stereo unspecified)                    >                 501
25             CN(Cc1ccc(N)nc1)c1ccc(C#N)cn1                    >                 501

###

- ASSAY METHOD TEXT: microbe, parasite or virus in culture
- CONDITION DESCRIPTION: Mycobacterium tuberculosis, 96 h, read-out: pIC50 (converted)
READOUT LABEL: log10 of IC50 (log10 of the value in µM)

>>> print(df.to_string())
                                    compound  readout_label  experimental_value
 0  CC(CN)c1nc(-c2ccccc2)no1 (configuration not stated)  log10 of IC50                2.61
 1  CC(C)n1ccc(-c2cc(C(=O)NC3CC3)c3ccccn23)n1  log10 of IC50                1.15
 2  Cc1ccc(-c2noc(C(C)N)n2)cc1F (configuration not stated)  log10 of IC50                2.51
 3  CN1CCCCC1c1ncc2c(n1)CCN(CCCc1ccccc1)C2 (configuration not stated)  log10 of IC50                1.61
 4  COCCN(Cc1ccsc1)C(=O)CC1CCNC1 (configuration not stated)  log10 of IC50                1.90
 5           CC(=O)c1cccc(COC(=O)c2cccnc2)c1  log10 of IC50                2.43
 6          Brc1ccc(NCc2ccc(Cn3ccnc3)cc2)nc1  log10 of IC50                0.67
 7     CCOC1CCN(CCc2nc(-c3cccc(Cl)c3)no2)CC1  log10 of IC50                1.45
 8  Fc1ccccc1CN1CCC[C@@H](Cn2nnc(-c3cccs3)n2)C1  log10 of IC50                1.52
 9  CC(C)Oc1cccc(C(O)CNC(=O)NCc2cccs2)c1 (configuration not stated)  log10 of IC50                1.49
10   CC(C)N(CCNc1nc(C2CCCC2)nc2c1cnn2C)C(C)C  log10 of IC50                1.27
11         CC(C)Cc1noc(-c2ccc(N(C)CCO)nc2)n1  log10 of IC50                2.60
12  NC(=O)CN1CCC(OCCCc2ccccc2)C1 (configuration not stated)  log10 of IC50                2.57
13        CCc1nc(CN(C)Cc2nnc(-c3cccs3)o2)cs1  log10 of IC50                0.93

###

- Tested on: Schistosoma mansoni
- ASSAY METHOD TEXT: High throughput screening of compounds against Schistosoma mansoni motility
- Format: functional
- Design: dose or concentration left out as unconfirmed
READOUT LABEL: Percent Effect (%)

>>> df
                                    compound  experimental_value
 0  CC[C@@]1(O)CCN(C(=O)c2ccc(-c3cccc(F)c3)cc2)C[C@H]1O                16.9
 1  CC(NC(=O)C1=NN(C)C(=O)CC1)c1ccc(F)cc1F (centres undefined)              -36.47
 2                   Cc1cc(F)ccc1CNCCn1cccn1              -28.39
 3  Cc1ccccc1S(=O)(=O)NC(=O)CSc1ccc2c(c1)OCCO2              -27.11
 4  Cn1cc(CCC(=O)N2C[C@H]3CC[C@@H]2CN(Cc2ccccc2)C3)cn1              -38.92
 5            Cc1ccn(-c2ccccc2NCc2cccnc2C)n1              -3.196
 6        O=C(Nc1cccc(CN2CCOC2=O)c1)N1CCOCC1               11.29
 7      O=C(CSc1nncs1)N1CCN(Cc2ccc(Cl)s2)CC1              -37.37
 8         O=c1nc(SCc2ccncc2)c2c(n1CCO)CCCC2              -51.22
 9  CCn1nc2c(cc1=O)CN(Cc1nc3ccccc3c(=O)[nH]1)CC2              -62.65
10  CN(CCCc1cnn(C)c1)C(=O)C1CCOC1 (centres undefined)              -54.96
11  CCc1nc2n(n1)CC(Nc1cc(C)nc3ncnn13)CC2 (centres undefined)              -43.49
12  O[C@H]1[C@H](n2cc(-c3ccccc3)nn2)c2ccccc2C12CCNCC2               3.648
13  O=C(c1cc(Cl)c2c(c1)OCO2)N1CCN(c2ccccn2)CC1               -95.4
14              Cn1cnc(S(=O)(=O)N2CCCC2)c1Cl              -11.59
15  CC(COc1ccccc1)NCc1nc(-c2cccnc2)no1 (centres undefined)              -35.35
16  Cc1cnn(CC2CCCN2Cc2coc(-c3ccccc3)n2)c1 (centres undefined)              -1.507
17  CSCC[C@H](N)C(=O)NCc1cc2n(n1)CCCN(C1CCCCC1)C2              -26.84
18  Cc1cc(CC(=O)N2CCCC2c2nc(C(C)C)no2)on1 (centres undefined)              -26.98
19  Cc1ccc(C(=O)NC(C)CN2CCCC2=O)c(=O)[nH]1 (centres undefined)              -45.23
20  Cc1cccc(NC(=O)Cn2ncc(SCC(N)=O)c(Cl)c2=O)c1C               40.97
21  Cc1n[nH]c(C)c1C1COCCN1C(=O)Cc1cccc(F)c1 (centres undefined)              -66.08
22       Cc1nsc(N2CCCN(c3nc(C4CC4)ns3)CC2)n1              -32.57
23                 CCOc1ncccc1NC(=O)c1sccc1C              -42.63
